Items are presented alongside their recorded folding stability dG unfold.
- ASSAY_INFO: folding stability dG unfold (combined trypsin and chymotrypsin); higher = more stable
Provide the reading as a plain figure in kJ/mol.

Below, 2 sequences whose answers are already recorded.
get_value(item= SASPDETVILEKVLPPSASPEEVEKEREEIREKLESLGAKVEVTIEPDPETGTIPIKITITKEQYEKLKSAG [r14_602_JUSTAS] , readout=folding stability dG unfold) returns 0.142

get_value(item= SAGGSAGGSAMGPPVRRVTITLSDGTRYEVDVAPDDSVAAVRAPLAAHPDVAAVTELTVEPSAGGSAGGSAG [r3_308_JUSTAS] , readout=folding stability dG unfold) returns 1.18

Next sequence, please.
get_value(item= SAGGSAGGSAGGETVVLVTYDKETKTLTVQTFELENGELKTTTKTVTLTDEQLESLPPASAGGSAGGSAGGS [r10_291_TrROS_Hall] , readout=folding stability dG unfold) returns 7.81

###

- ASSAY_INFO: folding stability dG unfold (combined trypsin and chymotrypsin); higher = more stable
Think of 0.8 kcal/mol as a floor: if folding stability dG unfold stands on it or above, it is true; beneath it, false.

Would you please look over these solved cases?
Ask: Decide: is the reported value of folding stability dG unfold for SAGGSAMEIKTLETKTVKTEKLPDGSTKVTTTYKTVDPSGGKTSNYIKTTLYAPDGKKTSTEVKEKSAGGSA [r15_758_JUSTAS] equal to or greater than 0.8 kcal/mol?
Reply: false

Ask: Decide: is the reported value of folding stability dG unfold for SAGGSAGGSAGGMVVRVTKNGTSTEIIVDSEEEAKELLKPLFPDDSEVEIEFVSEEELSSAGGSAGGSAGGS [r10_1167_JUSTAS] equal to or greater than 0.8 kcal/mol?
Reply: false

***
Ask: Decide: is the reported value of folding stability dG unfold for SAGGSAGGSAGGMKVIKIEDVEKVKAEAKKNGIKVTYKKENDGEIIAYIEKIPKSIKNKSAGGSAGGSAGGS [r10_218_JUSTAS] equal to or greater than 0.8 kcal/mol?
Reply: false

Ask: Decide: is the reported value of folding stability dG unfold for SAGGSAGGSAGGDPKAKPKKYYLIDLNARLVGVEVDPETGELTVTYELEGATLTLRFEGSAGGSAGGSAGGS [r10_962_TrMRF] equal to or greater than 0.8 kcal/mol?
Reply: true

Ask: Decide: is the reported value of folding stability dG unfold for SAGGSAGGSAGGGVAFSSDTTETRIDTTDDDTIVITTTTYAPNPSSTTTTVTTVPPDVPLSAGGSAGGSAGG [r7_128_JUSTAS] equal to or greater than 0.8 kcal/mol?
Reply: false

Ask: Decide: is the reported value of folding stability dG unfold for SAGGSAVVEIPIPPSSLDVRALIVPTDGPLTTVLVEETLPDGTPRVRLYRYDPARGEVRPLAEELPSAGGSA [r2_402_JUSTAS] equal to or greater than 0.8 kcal/mol?
Reply: false

Ask: Decide: is the reported value of folding stability dG unfold for SAGGSAGGKLSIPIHIPGLTPEEARKIVKYFAAAGIPPDNVTIEVQPVPPVPPMTPEEMEKHNKSAGGSAGG [r6_246_TrROS] equal to or greater than 0.8 kcal/mol?
Reply: false

Ask: Decide: is the reported value of folding stability dG unfold for SAGGEVPVSAEAAAAYDRAVAEGGGGATVPVETPGGRVIVYDPAGTATVLGDDPRTFPLAEVTAFAPSAGGS [r16_664_JUSTAS] equal to or greater than 0.8 kcal/mol?
Reply: false

Ask: Decide: is the reported value of folding stability dG unfold for SMKTYTFTDPNNGIKYTITIDPNKPLVNVTVTKPGGEPVETQTVSVAPGKINLSLNVDGKPISISISLPESA [r9_385_JUSTAS] equal to or greater than 0.8 kcal/mol?
Reply: true

Ask: Decide: is the reported value of folding stability dG unfold for SAGGSTIENPNGWRIEIDIIPIKVVYRKDPNGKPKEPVAPPVWIIHIKIEFPDKNGEKKEATFMLFSAGGSA [r2_218_TrROS] equal to or greater than 0.8 kcal/mol?
Reply: true

Ask: Decide: is the reported value of folding stability dG unfold for SAGGSAGGSAGLPENVKLVKVTVTITYPNGEKETIPVVAPVPVLEKLLSLPGLPVSVTDESAGGSAGGSAGG [r17_313_TrMRF] equal to or greater than 0.8 kcal/mol?
Reply: false

Ask: Decide: is the reported value of folding stability dG unfold for SAEEELRKALENMSDEELEALLRAAAPPPKTVTIRLSEEELEKLAQELADEYNVTVTVEVDGKTLTLTLSAG [r14_7_TrROS_Hall] equal to or greater than 0.8 kcal/mol?
Reply: true

Ask: Decide: is the reported value of folding stability dG unfold for SAGGSAGGSMKITINKWDPDNGNIMVTIQMPGQPVEIMIPWNNVDKLLEKLPFPGMKIDEIYPSAGGSAGGS [r12_23_TrROS] equal to or greater than 0.8 kcal/mol?
Reply: true

Ask: Decide: is the reported value of folding stability dG unfold for SAGGSAGGSAGGMLILVEVNGEKRLLEADSLEDALAKLPPGATVTRVEIFEVEEVELPESAGGSAGGSAGGS [r10_13_TrROS_Hall] equal to or greater than 0.8 kcal/mol?
Reply: true

Ask: Decide: is the reported value of folding stability dG unfold for SRRLITIEITVTLPGNPEVTLSKTLKLPTEDVEEAIEKAKKEFKEEFGIPEDVPVKIEVTVSTSDGDPSLQS [r1_149_JUSTAS] equal to or greater than 0.8 kcal/mol?
Reply: true

Origin of measurements: the supplement of paper PMC12764529
